Listed compounds paired with reported MIC (anti-bacterial activity)
# Test system: Streptococcus pneoumoniae (SPN)
# assay: MIC, two-fold agar dilution (CLSI), clinical isolates
# Assay type: cell-based
# measurement setup: strain SPN 16-4

{"columns": ["entry smiles", "MIC (anti-bacterial activity)"],
 "data": [
  ["O=CN(O)C[C@@H](CC1CCCC1)C(=O)N1CC2(CC2)C[C@H]1C(=O)Nc1cc[nH]n1", "16 µg/mL"],
  ["CCCC[C@H](CN(O)C=O)C(=O)N1CC2(CC2)C[C@H]1c1nc2ccccc2n1CCN(C)C", "1 µg/mL"],
  ["CCCC[C@H](CN(O)C=O)C(=O)N1CC2(CC2)C[C@H]1C(=O)Nc1nccs1", "0.5 µg/mL"],
  ["CCCC[C@H](CN(O)C=O)C(=O)N1CC2(CC2)C[C@H]1C(=O)Nc1cc(C)on1", "0.5 µg/mL"],
  ["O=CN(O)C[C@@H](CC1CCCC1)C(=O)N1CC2(CC2)C[C@H]1C(=O)Nc1ncco1", "16 µg/mL"],
  ["CCCC[C@H](CN(O)C=O)C(=O)N1CC2(CC2)C[C@H]1C(=O)NC1CC1", "4 µg/mL"]
]}
